- assay_overview: Cytotoxicity against human SHH+ HEK293a cells assessed as cell viability at 12.5 uM measured after 72 hrs by MTS assay relative to control
- Type: toxicity, cell-based, HEK293-A
- assay_setup: read-out: Activity
recorded_endpoint: viability at 72 h, 12.5 µM (%)
Give the value, in units of %, as a plain number.

Documented viability at 72 h, 12.5 µM of Cc1cccc(C2c3ccsc3CCN2C(=O)NCCCC(C)C)n1 (stereo unspecified) : 32

---

- assay_overview: Permeability of compound at pH 7.4 by PAMPA assay
- Assay type: ADME
recorded_endpoint: permeability

Examples with their reported permeability follow.
compound: CC(=O)N1CCc2sccc2C1c1ccccc1 (stereo unspecified)
permeability: Permeable

compound: CCC(C)CNCC(=O)N1CCc2ccccc2C1c1ccccc1 (stereo unspecified)
permeability: Permeable

compound: CCC(C)CNCC(=O)N1CCc2sccc2C1c1cccc(C)n1 (racemic)
permeability: Permeable

compound: CC(=O)N1CCc2ccccc2C1c1ccccc1 (stereo unspecified)
permeability: Permeable

Now turn to the next compound.
Documented permeability of C=CCNCC(=O)N1CCc2sccc2C1COc1ccc(Cl)cc1 (stereo unspecified) : Permeable

---

- test_target: Protein-cysteine N-palmitoyltransferase HHAT (Homo sapiens, UniProt Q5VTY9)
- Sequence (Q5VTY9 whole entry): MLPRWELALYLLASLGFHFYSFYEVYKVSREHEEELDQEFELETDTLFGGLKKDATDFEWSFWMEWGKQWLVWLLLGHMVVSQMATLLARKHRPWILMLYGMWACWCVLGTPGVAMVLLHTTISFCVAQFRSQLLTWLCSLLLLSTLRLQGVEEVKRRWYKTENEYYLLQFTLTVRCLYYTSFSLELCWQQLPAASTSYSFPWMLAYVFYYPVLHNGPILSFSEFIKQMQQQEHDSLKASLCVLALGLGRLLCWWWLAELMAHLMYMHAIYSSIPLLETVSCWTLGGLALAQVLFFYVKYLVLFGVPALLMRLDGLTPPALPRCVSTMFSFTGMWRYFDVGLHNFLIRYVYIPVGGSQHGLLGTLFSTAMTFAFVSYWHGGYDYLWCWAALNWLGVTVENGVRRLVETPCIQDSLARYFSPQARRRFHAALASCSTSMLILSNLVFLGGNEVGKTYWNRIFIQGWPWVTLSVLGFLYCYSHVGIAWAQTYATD
- assay_overview: Inhibition of human recombinant HHAT using SHH-FAM peptide as substrate at 50 uM for 30 mins by acylation coupled lipophilic induction of polarization (acyl-cLIP) assay relative to control
Below: a set of entries, each annotated with reported inhibition.
For clarity, give the value followed by its unit.

compound: N[C@@H](Cc1ccccc1)C(=O)N1CCc2sccc2C1c1ccccc1 (stereo not given in full)
test_target: Protein-cysteine N-palmitoyltransferase HHAT (Homo sapiens, UniProt Q5VTY9)
recorded_endpoint: inhibition
result: 6%
//
compound: COc1ccccc1C1c2ccsc2CCN1C(C)=O (stereo not given)
test_target: Protein-cysteine N-palmitoyltransferase HHAT (Homo sapiens, UniProt Q5VTY9)
recorded_endpoint: inhibition
result: 91%

Documented inhibition of Cc1cccc(C2c3ccsc3CCN2C(=O)NCCCC(C)C)n1 (stereo not given) : 53%

Documented inhibition of c1ccc(C2NCCc3sccc32)cc1 (stereo not given) : 16%

Documented inhibition of "CC(=O)N1CCc2sccc2[C@@H]1c1cccc(C)n1" : 56%

---

- assay_overview: Cytotoxicity against human SHH+ HEK293a cells assessed as cell viability measured after 72 hrs by MTS assay
- Type: toxicity, cell-based, HEK293-A
recorded_endpoint: CC50 at 72 h (µM)
Give the value, in units of µM, as a plain number.

Documented CC50 at 72 h of Cc1cccc(C2c3ccsc3CCN2C(=O)NCCCC(C)C)n1 (stereo unspecified) : 6.1

---

Below: a set of entries, each annotated with reported IC50.
- test_target: UniProt Q5VTY9
- assay_overview: Inhibition of human recombinant HHAT using SHH-FAM peptide as substrate for 30 mins by acylation coupled lipophilic induction of polarization (acyl-cLIP) assay
Give the value, in units of µM, as a plain number.

compound: Cc1cccc(C2c3ccsc3CCN2C(=O)NCCCC(C)C)n1 (configuration not stated)
test_target: UniProt Q5VTY9
unit_symbol: µM
numeric_readout: 42.3

Now turn to the next compound.
Value (IC50, UniProt Q5VTY9) for record CCC(C)CNCC(=O)N1CCc2sccc2C1c1ccccc1O (configuration not stated) = 4.79
